Assay: MRP1 drug-resistance reversers in H69AR cells – cell-based, doxorubicin co-treatment, pilot screen (AID 601)
Conditions: H69AR cells, CellTiter-Glo, 72 h; compound alone cytotoxicity; at 10 µM

[
  {
    "compound": "C=C(Cl)COc1ccc2c(C)cc(=O)oc2c1",
    "viability": "101%"
  },
  {
    "compound": "CCc1cc2c(NCCC(=O)O)ncnc2s1",
    "viability": "97.6%"
  },
  {
    "compound": "O=C(NC1CCCc2ccccc21)c1ccc(CNc2c(N3CCOCC3)c(=O)c2=O)cc1 (stereo unspecified)",
    "viability": "91.7%"
  },
  {
    "compound": "CCOc1ccc(NC2c3ccccc3C(=O)N2Cc2ccco2)cc1 (stereo unspecified)",
    "viability": "96.2%"
  },
  {
    "compound": "COc1ccc(C(=O)Oc2c(CN3CCOCC3)cc(Cl)c3cccnc23)cc1OC",
    "viability": "1.58%"
  },
  {
    "compound": "Cc1cc2nc(-c3ccco3)cc(C(F)(F)F)n2n1",
    "viability": "93.3%"
  },
  {
    "compound": "Cc1ccc(N=Cc2ccc(O)cc2O)cc1F",
    "viability": "81.9%"
  },
  {
    "compound": "O=C(Oc1ccc2ccc(OC(=O)N3CCOCC3)cc2c1)N1CCOCC1",
    "viability": "84%"
  },
  {
    "compound": "O=C(Nc1ccccc1)c1cnc2n(c1=O)CCS2",
    "viability": "91.1%"
  },
  {
    "compound": "CC1CCCN(S(=O)(=O)c2coc(C(N)=O)c2)C1 (stereo unspecified)",
    "viability": "94.6%"
  },
  {
    "compound": "COc1ccc(OC)c(C2CC(=O)NC(SC)=C2C#N)c1 (stereo unspecified)",
    "viability": "94.3%"
  },
  {
    "compound": "COc1ccc(N2CCN(C(c3ccccc3)c3sc4nc(C)nn4c3O)CC2)cc1 (stereo unspecified)",
    "viability": "90%"
  },
  {
    "compound": "CC1CCc2nn(CC(=O)NCc3ccc4c(c3)OCO4)cc2C1 (stereo unspecified)",
    "viability": "100%"
  },
  {
    "compound": "COc1ccc(-c2nc(CSCC(=O)NCc3ccc4c(c3)OCO4)c(C)o2)cc1OC",
    "viability": "84.9%"
  },
  {
    "compound": "COc1ccc(NC(=O)C2CCCCN2S(=O)(=O)c2ccc(F)cc2)cc1 (stereo unspecified)",
    "viability": "89.2%"
  },
  {
    "compound": "O=C(Nc1ccc2c(c1)OCCO2)c1cnc2n(c1=O)CCS2",
    "viability": "79.4%"
  },
  {
    "compound": "COc1ccc(NC(=O)CC2Sc3ncnn3C2=O)cc1 (stereo unspecified)",
    "viability": "111%"
  },
  {
    "compound": "Cc1cc(NS(=O)(=O)c2ccc(NC(=O)COc3ccccc3C(C)C)cc2)no1",
    "viability": "88.9%"
  },
  {
    "compound": "CC1Cc2nc(SCC(=O)Nc3nccs3)n(C)c(=O)c2S1 (stereo unspecified)",
    "viability": "77.8%"
  },
  {
    "compound": "CCC1CCCCN1CCNS(=O)(=O)c1ccc2c(c1)oc(=O)n2C (stereo unspecified)",
    "viability": "85.2%"
  },
  {
    "compound": "CCCC(=O)NCCc1cc2c(C)ccc(C)c2[nH]c1=O",
    "viability": "98.8%"
  },
  {
    "compound": "O=C(CSc1nc2c(c(=O)n1-c1ccc(F)cc1)SCC2)NCC1CCCO1 (stereo unspecified)",
    "viability": "105%"
  },
  {
    "compound": "Cc1ccc(SCC(=O)NCCN2C(=O)CSC2=O)c(C)c1",
    "viability": "87.7%"
  },
  {
    "compound": "c1ccc2c(c1)Cc1cc(CN3CCOCC3)ccc1-2",
    "viability": "89.3%"
  },
  {
    "compound": "O=C(CSc1ncnc2nc[nH]c12)c1ccc(Cl)cc1",
    "viability": "91.1%"
  },
  {
    "compound": "Cc1c(C#N)c2ncnc(-c3ccccc3)c2n1-c1ccccc1",
    "viability": "71.8%"
  },
  {
    "compound": "CN1CCN(Cc2nc3c(c(=O)n(C)c(=O)n3C)n2Cc2ccccc2Cl)CC1",
    "viability": "86.9%"
  },
  {
    "compound": "CCOc1ccccc1N(CC(=O)N1CCCCCC1)S(C)(=O)=O",
    "viability": "99.8%"
  },
  {
    "compound": "O=C(OCCN=C1NS(=O)(=O)c2ccccc21)C1CC(=O)N(c2ccc(Cl)cc2)C1 (stereo unspecified)",
    "viability": "93.2%"
  },
  {
    "compound": "COc1ccc(C2CC(c3cccs3)n3nc(N)nc3N2)cc1 (stereo unspecified)",
    "viability": "91.4%"
  },
  {
    "compound": "COc1ccc(NC(=O)CSc2nc3c(c(=O)n2-c2ccc(F)cc2)SCC3)cc1",
    "viability": "95.5%"
  }
]
